Cited source for all entries: patent US20230012273A1

system: T1, full-length human SIRPβL H→D on Expi-CHO cells (human, UniProt Q5TFQ8 30-398)
T1 construct: the entry already carries the change (PDHV to PDDV); also called βL WT H→D
T1 sequence (Q5TFQ8 30-398 H130D): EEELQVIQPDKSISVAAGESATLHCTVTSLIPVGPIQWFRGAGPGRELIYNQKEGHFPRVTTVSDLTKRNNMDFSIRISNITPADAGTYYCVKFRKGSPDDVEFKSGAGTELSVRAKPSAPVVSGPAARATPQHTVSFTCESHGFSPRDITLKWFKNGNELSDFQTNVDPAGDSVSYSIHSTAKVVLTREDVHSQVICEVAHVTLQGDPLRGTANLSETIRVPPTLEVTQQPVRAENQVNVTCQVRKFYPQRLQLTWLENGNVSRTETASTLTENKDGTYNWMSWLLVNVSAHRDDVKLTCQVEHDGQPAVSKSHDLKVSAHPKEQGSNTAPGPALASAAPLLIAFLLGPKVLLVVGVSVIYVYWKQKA
assay_protocol: flow cytometry, Expi-CHO cells
Form field: EC50 (one value per entry).

binder: Antibody D (antibody, human IgG1, kappa, L234A L235A, V domains shown) VH: EVQLVESGGGLVQPGGSLRLSCAASGFTFSSFDMHWVRQPTGKGLEWVSTIGIAGDTYFPGSVKGRFTISRENAKNSLYLQMNSLRAGDTAVYYCARGGNWDDALDIWGQGTMVTVSS VL: DIQMTQSPSSLSASVGDRVTITCRASQDINNYLAWFQQKPGKAPKSLIYTASSLQSGVPSKFSGSGSGTDFTLTISSLQPEDFATYYCQQYNTYPYTFGQGTKLEIKR
EC50, nM: 0.2
//
binder: Antibody C (antibody, human IgG1, kappa, L234A L235A, V domains shown) VH: EVQLVESGGGLVQPGGSLRLSCAASGFTFSSYDMHWVRQATGKGLEWVSVIGIAGDTYYPGSVKGRFTISRENAKNSLYLQMNSLRVGDTAVYYCARGGSWDDAFDIWGQGTMVTVSS VL: DIQMTQSPSSLSASIGDKVTITCRASQDINNYLAWFQQKPGKAPKSLIYTASSLQSGVPSKFSGSGSGTDFTLTISSLQPEDFATYYCQQYVSYPYTFGQGTKLEIKR
EC50, nM: 0.3
//
binder: Antibody E22 (antibody, human IgG1, kappa, L234A L235A, V domains shown) VH: QVQLQESGPGLVKPSETLSLTCTVSGGSIRDYYWSWIRQPPGKGLEWIGFIYYNGRTFYQSSLKSRVTISLDTSKNQFSLKMTSVTAADTAVYYCARVRAYSGIGLDGTDVWGQGTTVTVSS VL: DIVMTQSPLSLPVTPGEPASISCRSSQSLLYSTGYTYLDWYLQRPGQSPQLLIYGGSSRASGVPDRFSGSGSGTDFTLKISRVEAEDVGVFYCGQALQTPLTFGQGTKVEIKR
EC50, nM: 0.7
//
binder: Anti-SIRPα antibody KWAR23 (antibody, V domains shown) VH: EVQLQQSGAELVKPGASVKLSCTASGFNIKDYYIHWVQQRTEQGLEWIGRIDPEDGETKYAPKFQDKATITADTSSNTAYLHLSSLTSEDTAVYYCARWGAYWGQGTLVTVSS VL: QIVLTQSPAIMSASPGEKVTLTCSASSSVSSSYLYWYQQKPGSSPKLWIYSTSNLASGVPARFSGSGSGTSYSLTISSMEAEDAASYFCHQWSSYPRTFGAGTKLELK
EC50, nM: 0.5
